# PROCEDURE_TEXT: Intrinsic clearance in human liver microsomes at 1 uM by LC-MS/MS analysis in presence of NADPH
# Assay type: ADME
# SETTINGS: read-out: CLH
MEASURED_ENDPOINT: microsomal CLint at 1 µM (µL/min/mg)
Write the answer as a number in µL/min/mg, unit excluded.

Prompt: Param item = `CC(C)NC(=O)[C@H]1CC[C@@H](n2/c(=N/C(=O)c3ccc(F)cc3)[nH]c3ccc(CN4CCC(C(C)(C)O)CC4)cc32)CC1` ; retrieve measured microsomal CLint at 1 µM.
Completion: 67

* * *

# PROCEDURE_TEXT: Tmax in CD-1 mouse at 100 mg/kg, po administered through gavage by LC-MS/MS analysis
# Format: ADME, organism-based
# Design: dose 100 mg/kg, route oral
# SETTINGS: in vivo
MEASURED_ENDPOINT: Tmax

Prompt: Please give the measured Tmax for this molecule: `CC(C)NC(=O)[C@H]1CC[C@@H](n2/c(=N/C(=O)c3ccc(F)cc3)[nH]c3ccc(CN4CCC(C(C)(C)O)CC4)cc32)CC1`
Completion: 1 h

* * *

# PROCEDURE_TEXT: AUC (0 to infinity) in CD-1 mouse at 2 mg/kg, iv administered as single bolus dose by LC-MS/MS analysis
# Format: ADME, organism-based
# Parameters: time infinity, dose 2 mg/kg, route intravenous
# SETTINGS: plasma
MEASURED_ENDPOINT: AUC(0-inf) (µM·h)
Express your answer in µM·h, writing the number without its unit.

MOLECULE: CC(C)NC(=O)[C@H]1CC[C@@H](n2/c(=N/C(=O)c3cc(F)cc(F)c3)[nH]c3ccc(CN4CCC(C(C)(C)O)CC4)cc32)CC1
AUC(0-inf), µM·h: 0.957
//
MOLECULE: CC(C)NC(=O)[C@H]1CC[C@@H](n2/c(=N/C(=O)c3cccc(C(F)(F)F)c3)[nH]c3ccc(CN4CCC(C(C)(C)O)CC4)cc32)CC1
AUC(0-inf), µM·h: 1.2
//
MOLECULE: CC(C)NC(=O)[C@H]1CC[C@@H](n2/c(=N/C(=O)c3ccc(F)cc3)[nH]c3ccc(CN4CCC(C(C)(C)O)CC4)cc32)CC1
AUC(0-inf), µM·h: 0.627

Prompt: Would you mind telling me what AUC(0-inf) value was observed for `CC(C)NC(=O)[C@H]1CC[C@@H](n2/c(=N/C(=O)c3cc(F)cc(Cl)c3)[nH]c3ccc(CN4CCC(C(C)(C)O)CC4)cc32)CC1` ?
Completion: 1.53

* * *

# PROCEDURE_TEXT: Intrinsic clearance in CD-1 mouse liver microsomes at 1 uM by LC-MS/MS analysis in presence of NADPH
# Format: ADME
# SETTINGS: read-out: CLH
MEASURED_ENDPOINT: microsomal CLint at 1 µM
Report the figure along with its unit, number first.

Prompt: So what's the measured microsomal CLint at 1 µM for this one? `CC(C)NC(=O)[C@H]1CC[C@@H](n2/c(=N/C(=O)c3ccc(F)cc3)[nH]c3ccc(CN4CCC(C(C)(C)O)CC4)cc32)CC1`
Completion: 110 µL/min/mg

* * *

# PROCEDURE_TEXT: Drug metabolism in CD-1 mouse liver microsomes assessed as hydrolysis metabolite formation rate by LC-MS/MS analysis
# Format: ADME
# SETTINGS: read-out: Km(app)
MEASURED_ENDPOINT: Km (µM)
Give the value in µM but do not write µM after it.

// below: answered compounds
MOLECULE: CC(C)NC(=O)[C@H]1CC[C@@H](n2/c(=N/C(=O)c3cccc(C(F)(F)F)c3)[nH]c3ccc(CN4CCC(C(C)(C)O)CC4)cc32)CC1
MEASURED_ENDPOINT: Km
MEASURED_RESULT: 0.261
--
MOLECULE: CC(C)NC(=O)[C@H]1CC[C@@H](n2/c(=N/C(=O)c3cc(F)cc(Cl)c3)[nH]c3ccc(CN4CCC(C(C)(C)O)CC4)cc32)CC1
MEASURED_ENDPOINT: Km
MEASURED_RESULT: 0.053
--
MOLECULE: CC(C)NC(=O)[C@H]1CC[C@@H](n2/c(=N/C(=O)c3cc(F)cc(F)c3)[nH]c3ccc(CN4CCC(C(C)(C)O)CC4)cc32)CC1
MEASURED_ENDPOINT: Km
MEASURED_RESULT: 0.0292

# context switch: different compound, same Km
Prompt: Could you tell me which Km is on file for `CC(C)NC(=O)[C@H]1CC[C@@H](n2/c(=N/C(=O)c3ccc(F)cc3)[nH]c3ccc(CN4CCC(C(C)(C)O)CC4)cc32)CC1` ?
Completion: 0.0437

* * *

# PROCEDURE_TEXT: AUC (0 to infinity) in CD-1 mouse at 20 mg/kg, po administered through gavage by LC-MS/MS analysis
# Type: ADME, organism-based
# Design: time infinity, dose 20 mg/kg, route oral
# SETTINGS: plasma
MEASURED_ENDPOINT: AUC(0-inf)

Prompt: Find the recorded AUC(0-inf) belonging to `CC(C)NC(=O)[C@H]1CC[C@@H](n2/c(=N/C(=O)c3ccc(F)cc3)[nH]c3ccc(CN4CCC(C(C)(C)O)CC4)cc32)CC1` and report it.
Completion: 1.31 µM·h

* * *

# PROCEDURE_TEXT: Drug metabolism in CD-1 mouse NADPH-fortified liver microsomes assessed as hydrolysis metabolite formation rate by LC-MS/MS analysis
# Assay type: ADME
# SETTINGS: read-out: Km(app)
MEASURED_ENDPOINT: Km
Remember to quote the unit after the number.

MOLECULE: CC(C)NC(=O)[C@H]1CC[C@@H](n2/c(=N/C(=O)c3cc(F)cc(F)c3)[nH]c3ccc(CN4CCC(C(C)(C)O)CC4)cc32)CC1
Km: 0.936 µM
//
MOLECULE: CC(C)NC(=O)[C@H]1CC[C@@H](n2/c(=N/C(=O)c3cccc(C(F)(F)F)c3)[nH]c3ccc(CN4CCC(C(C)(C)O)CC4)cc32)CC1
Km: 1.95 µM
//
MOLECULE: CC(C)NC(=O)[C@H]1CC[C@@H](n2/c(=N/C(=O)c3cc(F)cc(Cl)c3)[nH]c3ccc(CN4CCC(C(C)(C)O)CC4)cc32)CC1
Km: 1.9 µM

Kindly review the next compound as well.
Prompt: I am curious: what Km value has been reported for `CC(C)NC(=O)[C@H]1CC[C@@H](n2/c(=N/C(=O)c3ccc(F)cc3)[nH]c3ccc(CN4CCC(C(C)(C)O)CC4)cc32)CC1` ?
Completion: 0.263 µM

* * *

# PROCEDURE_TEXT: Cmax in CD-1 mouse at 20 mg/kg, po administered through gavage by LC-MS/MS analysis
# Format: ADME, organism-based
# Parameters: dose 20 mg/kg, route oral
# SETTINGS: in vivo
MEASURED_ENDPOINT: Cmax (nM)
Quick note: give the figure in nM, leave out the unit.

Prompt: May I ask what Cmax has been recorded for `CC(C)NC(=O)[C@H]1CC[C@@H](n2/c(=N/C(=O)c3ccc(F)cc3)[nH]c3ccc(CN4CCC(C(C)(C)O)CC4)cc32)CC1` ?
Completion: 782

* * *

# PROCEDURE_TEXT: Fraction unbound in CD-1 mouse liver microsomes after 7 hrs by equilibrium dialysis method
# Type: ADME
fraction unbound at 7 h overview
Just the number, please.

Solved entries:
MOLECULE: CC(C)NC(=O)[C@H]1CC[C@@H](n2/c(=N/C(=O)c3ccc(F)cc3)[nH]c3ccc(CN4CCC(C(C)(C)O)CC4)cc32)CC1
MEASURED_RESULT: 0.76
--
MOLECULE: CC(C)NC(=O)[C@H]1CC[C@@H](n2/c(=N/C(=O)c3cc(F)cc(F)c3)[nH]c3ccc(CN4CCC(C(C)(C)O)CC4)cc32)CC1
MEASURED_RESULT: 0.53

Prompt: For the molecule `CC(C)NC(=O)[C@H]1CC[C@@H](n2/c(=N/C(=O)c3cc(F)cc(Cl)c3)[nH]c3ccc(CN4CCC(C(C)(C)O)CC4)cc32)CC1` , what fraction unbound at 7 h is on record?
Completion: 0.22

Prompt: Can you handle `CC(C)NC(=O)[C@H]1CC[C@@H](n2/c(=N/C(=O)c3cccc(C(F)(F)F)c3)[nH]c3ccc(CN4CCC(C(C)(C)O)CC4)cc32)CC1` next?
Completion: 0.22

* * *

# PROCEDURE_TEXT: In vitro half life in CD-1 mouse plasma at 0.83 uM by LC-MS/MS analysis
# Type: ADME, cell-free
MEASURED_ENDPOINT: half-life at 0.83 µM (h)
Value expressed in h; do not type the unit.

Study these solved cases before continuing.
MOLECULE: CC(C)NC(=O)[C@H]1CC[C@@H](n2/c(=N/C(=O)c3ccc(F)cc3)[nH]c3ccc(CN4CCC(C(C)(C)O)CC4)cc32)CC1
half-life at 0.83 µM (h): 0.2

MOLECULE: CC(C)NC(=O)[C@H]1CC[C@@H](n2/c(=N/C(=O)c3cccc(C(F)(F)F)c3)[nH]c3ccc(CN4CCC(C(C)(C)O)CC4)cc32)CC1
half-life at 0.83 µM (h): 8.5

MOLECULE: CC(C)NC(=O)[C@H]1CC[C@@H](n2/c(=N/C(=O)c3cc(F)cc(F)c3)[nH]c3ccc(CN4CCC(C(C)(C)O)CC4)cc32)CC1
half-life at 0.83 µM (h): 2.9

Prompt: For the compound shown here, `CC(C)NC(=O)[C@H]1CC[C@@H](n2/c(=N/C(=O)c3cc(F)cc(Cl)c3)[nH]c3ccc(CN4CCC(C(C)(C)O)CC4)cc32)CC1` , give the reported half-life at 0.83 µM.
Completion: 8.2
